Values from patent US20050009124A1

endpoint: IC50 (nM)
Please state the figure in nM; there is no need to write the unit.

Lookup: API: value(readout= IC50, system= GST-GRP1-PH (Homo sapiens), query= CCCCCCCC(=O)OC[C@H](COP(=O)(O)OC1[C@H](O)[C@H](OP(=O)(O)O)C(OP(=O)(O)O)[C@H](OP(=O)(O)O)[C@H]1O)OC(=O)CCCCCCC (stereo partly shown) )
Found: 218

###

tgt: GST-TAPP1 (Homo sapiens, UniProt Q9HB21)
Sequence (Q9HB21 whole entry): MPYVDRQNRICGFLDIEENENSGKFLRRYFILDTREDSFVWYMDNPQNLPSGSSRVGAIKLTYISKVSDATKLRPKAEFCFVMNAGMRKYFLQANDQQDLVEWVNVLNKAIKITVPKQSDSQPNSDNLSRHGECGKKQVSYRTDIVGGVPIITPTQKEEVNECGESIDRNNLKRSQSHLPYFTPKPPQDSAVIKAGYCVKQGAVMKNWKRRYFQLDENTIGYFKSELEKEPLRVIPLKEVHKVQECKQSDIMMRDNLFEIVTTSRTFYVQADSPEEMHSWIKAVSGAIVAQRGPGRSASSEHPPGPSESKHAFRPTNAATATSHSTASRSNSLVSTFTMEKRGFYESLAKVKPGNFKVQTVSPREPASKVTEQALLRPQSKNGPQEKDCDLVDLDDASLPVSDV
method notes: Competitive FP assay, displacement of BODIPY-TMR-PI(3,4)P2 tracer from GST-TAPP1
Type: binding
assay context: predicted, read-out: predicted IC50
endpoint: pIC50
Answer as the number alone; pIC50 is minus log10 of concentration in mol/L.

Lookup: Consider the molecule CCCCCCCC(=O)OC[C@H](COP(=O)(O)OC1[C@H](O)[C@H](OP(=O)(O)O)C(OP(=O)(O)O)[C@H](OP(=O)(O)O)[C@H]1O)OC(=O)CCCCCCC (stereo partly shown) and give its measured pIC50.
Found: 5.82
